Hey, just so you know, these numbers are from patent US20240368150A1.

Known EC50 of a selection of molecules
system: primary human T-cells
endpoint-name: EC50

{"molecule": "CC1(c2nc(-c3cc4c(cc3F)[S+]([O-])C[C@H](N)C(=O)N4Cc3ccc(Cl)cc3)no2)CC[N+]([O-])(CC(F)(F)F)CC1 (stereo partly drawn)", "endpoint-result": "> 10 µM"}
{"molecule": "CC(C)(C)c1nnc(-c2cc3c(cc2F)S(=O)(=O)C[C@H](N)C(=O)N3Cc2ccc(CN)cc2)o1", "endpoint-result": "> 20 µM"}
{"molecule": "CC(C)(CN1CCCC1=O)c1nnc(-c2cc3c(cc2F)S(=O)(=O)C[C@H](N)C(=O)N3Cc2ccc(Cl)cc2)o1", "endpoint-result": "4.35 µM"}
{"molecule": "CNCC(=O)N[C@H]1CS(=O)(=O)c2cc(F)c(-c3nnc(C(C)(C)C)o3)cc2N(Cc2ccc(Cl)cc2)C1=O", "endpoint-result": "> 20 µM"}
{"molecule": "CC1(C)CNCC(c2nc(-c3cc4c(cc3F)S(=O)(=O)C[C@H](N)C(=O)N4Cc3ccc(Cl)cc3)no2)C1 (stereo partly drawn)", "endpoint-result": "> 10 µM"}
{"molecule": "CC(C)OC(=O)N1CC2CC(c3nc(-c4cc5c(cc4F)S(=O)(=O)C[C@H](N)C(=O)N5Cc4ccc(Cl)cc4)no3)(C2)C1", "endpoint-result": "0.679 µM"}

====

test system: primary human T-cells; assay: Proliferation assay after 5 days (CellTiter-Glo, CD3 stimulation; PBS counter screen); type: cell-based; settings: Homo sapiens, T-cell, 120 h, primary human T-cells, CD3 stimulation, CellTiter-Glo after 5 days; EC50 of fitted sigmoidal curve; read-out: Tcell Proliferation CD3 EC50

{"compound": "NC1CN(c2nnc(-c3cc4c(cc3F)S(=O)(=O)C[C@H](N)C(=O)N4Cc3ccc(Cl)cc3)o2)CC(F)(F)C1 (stereo partly shown) [Example 477]", "system-tested": "primary human T-cells", "EC50": "3490 nM"}
{"compound": "N[C@H]1CS(=O)(=O)c2cc(F)c(-c3noc(C4(C(F)(F)F)CC4)n3)cc2N(Cc2ccc(OC(F)(F)F)cc2)C1=O [Example 344]", "system-tested": "primary human T-cells", "EC50": "69.7 nM"}
{"compound": "CN1CC(n2cc(-c3cc4c(cc3F)S(=O)(=O)C[C@H](N)C(=O)N4Cc3ccc(Cl)cc3)cn2)CC(F)(F)C1 (stereo partly shown) [Example 281]", "system-tested": "primary human T-cells", "EC50": "1040 nM"}
{"compound": "CC(C)(CN1CCCCC1=O)c1nnc(-c2cc3c(cc2F)S(=O)(=O)C[C@H](N)C(=O)N3Cc2ccc(Cl)cc2)o1 [Example 66]", "system-tested": "primary human T-cells", "EC50": "2070 nM"}
